Taken from the supplement of paper PMC10567573.

# Lookup of reported protein stability index keyed by entry
B1: ADAMTS4 (parent)
chain: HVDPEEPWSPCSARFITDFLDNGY

- Variants of: B1
- assay-remarks: protein stability index of a GFP-peptide fusion (GPS, HEK-293T) (PSI 1-6); higher = more stable;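 also: lentivirally expressed fusions sorted by FACS into six bins by GFP to DsRed ratio, PSI derived from sequencing read proportions per bin multiplied by bin number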
- condition-notes: c terminus: a fixed tail appended
metric: protein stability index

[[record]]
variant_spec = "F19Q"
experimental_result = 2.21

[[record]]
variant_spec = "S12G"
experimental_result = 1.61

[[record]]
variant_spec = "A13H"
experimental_result = 1.85

[[record]]
variant_spec = "P7T"
experimental_result = 1.9

[[record]]
variant_spec = "E5F"
experimental_result = 2.72

[[record]]
variant_spec = "P4R"
experimental_result = 2.42

[[record]]
variant_spec = "R14Y"
experimental_result = 1.71

[[record]]
variant_spec = "G23M"
experimental_result = 1.69

[[record]]
variant_spec = "I16P"
experimental_result = 1.81

[[record]]
variant_spec = "W8V"
experimental_result = 3.5

[[record]]
variant_spec = "G23C"
experimental_result = 2.17

[[record]]
variant_spec = "N22P"
experimental_result = 2.09

[[record]]
variant_spec = "D3R"
experimental_result = 1.8

[[record]]
variant_spec = "P4A"
experimental_result = 1.63

[[record]]
variant_spec = "D3Q"
experimental_result = 2.49

[[record]]
variant_spec = "G23L"
experimental_result = 1.82

[[record]]
variant_spec = "Y24K"
experimental_result = 1.94

[[record]]
variant_spec = "N22Q"
experimental_result = 2.09

[[record]]
variant_spec = "F15G"
experimental_result = 2.71

[[record]]
variant_spec = "H1Y"
experimental_result = 2.29

[[record]]
variant_spec = "V2T"
experimental_result = 2.2

[[record]]
variant_spec = "N22M"
experimental_result = 1.92

[[record]]
variant_spec = "A13Y"
experimental_result = 1.67

[[record]]
variant_spec = "V2N"
experimental_result = 2.48

[[record]]
variant_spec = "W8L"
experimental_result = 3.24

[[record]]
variant_spec = "W8M"
experimental_result = 2.82

[[record]]
variant_spec = "S12M"
experimental_result = 1.57

[[record]]
variant_spec = "T17R"
experimental_result = 2.03

[[record]]
variant_spec = "L20S"
experimental_result = 1.82

[[record]]
variant_spec = "P4E"
experimental_result = 2.07

[[record]]
variant_spec = "E6N"
experimental_result = 1.94

[[record]]
variant_spec = "G23W"
experimental_result = 1.82

[[record]]
variant_spec = "N22F"
experimental_result = 1.85

[[record]]
variant_spec = "E6S"
experimental_result = 2.43

[[record]]
variant_spec = "P10G"
experimental_result = 1.88

[[record]]
variant_spec = "S12E"
experimental_result = 1.88

[[record]]
variant_spec = "P4I"
experimental_result = 1.77

[[record]]
variant_spec = "D18A"
experimental_result = 2.2

[[record]]
variant_spec = "I16W"
experimental_result = 1.55

[[record]]
variant_spec = "E5L"
experimental_result = 2.31

[[record]]
variant_spec = "S9L"
experimental_result = 1.67

[[record]]
variant_spec = "G23D"
experimental_result = 2.24

[[record]]
variant_spec = "Y24L"
experimental_result = 1.84

[[record]]
variant_spec = "S12T"
experimental_result = 1.47

[[record]]
variant_spec = "D3C"
experimental_result = 2.63

[[record]]
variant_spec = "F19I"
experimental_result = 1.8

[[record]]
variant_spec = "Y24Q"
experimental_result = 2.1

[[record]]
variant_spec = "D21S"
experimental_result = 1.73

[[record]]
variant_spec = "D21T"
experimental_result = 1.96

[[record]]
variant_spec = "D18I"
experimental_result = 2.73

[[record]]
variant_spec = "C11N"
experimental_result = 1.9

[[record]]
variant_spec = "R14N"
experimental_result = 1.86

[[record]]
variant_spec = "C11D"
experimental_result = 2.05

[[record]]
variant_spec = "H1A"
experimental_result = 2.09

[[record]]
variant_spec = "C11R"
experimental_result = 1.7

[[record]]
variant_spec = "W8F"
experimental_result = 2.29

[[record]]
variant_spec = "C11S"
experimental_result = 2.19

[[record]]
variant_spec = "F15H"
experimental_result = 1.98

[[record]]
variant_spec = "E6C"
experimental_result = 2.21

[[record]]
variant_spec = "A13P"
experimental_result = 1.89

[[record]]
variant_spec = "S12C"
experimental_result = 1.8

[[record]]
variant_spec = "C11P"
experimental_result = 2

[[record]]
variant_spec = "D18M"
experimental_result = 2.9

[[record]]
variant_spec = "P10T"
experimental_result = 1.92

[[record]]
variant_spec = "D21Y"
experimental_result = 1.33

[[record]]
variant_spec = "P7A"
experimental_result = 1.48

[[record]]
variant_spec = "W8S"
experimental_result = 3.27

[[record]]
variant_spec = "N22D"
experimental_result = 1.88

[[record]]
variant_spec = "E6F"
experimental_result = 2.19

[[record]]
variant_spec = "S12Y"
experimental_result = 1.83

[[record]]
variant_spec = "C11F"
experimental_result = 2.1

[[record]]
variant_spec = "Y24P"
experimental_result = 1.92

[[record]]
variant_spec = "T17E"
experimental_result = 1.57

[[record]]
variant_spec = "T17C"
experimental_result = 2.04

[[record]]
variant_spec = "Y24M"
experimental_result = 2.07

[[record]]
variant_spec = "P4D"
experimental_result = 2.11

[[record]]
variant_spec = "E5C"
experimental_result = 2.19

[[record]]
variant_spec = "Y24S"
experimental_result = 1.81

[[record]]
variant_spec = "P10N"
experimental_result = 1.99

[[record]]
variant_spec = "E5I"
experimental_result = 2.32

[[record]]
variant_spec = "A13V"
experimental_result = 2.54

[[record]]
variant_spec = "D18R"
experimental_result = 1.13

